# Tested on: OVCAR-5
# experiment.description: cells
# Type: cell-based
# experimental.conditions: Homo sapiens; OVCAR-5 (Ovarian Cancer)
pIC50: −log10 of the molar value.

- structure.smiles: "O=c1[nH]ccc2nc(N3CCC(O)CC3)nc(Nc3cccc(C(F)(F)F)c3)c12"
  pIC50: 4.13

====

# Tested on: UACC-62
# experiment.description: cells
# Format: cell-based
# experimental.conditions: Homo sapiens; UACC-62 (Melanoma)
pIC50: −log10 of the molar value.

- molecule: "O=c1[nH]ccc2nc(N3CCC(O)CC3)nc(Nc3cccc(C(F)(F)F)c3)c12 [Compound 6]"
  pIC50: 5.40

====

We begin with a simple list: items and their reported inhibition at 1 µM.
# target.or.test.system: human ZAP70 (Homo sapiens)
# Construct: Purified full-length human SYK, ZAP70, PIM1, PYK2; purchased Carna Biosciences
# Sequence (P43403 whole entry): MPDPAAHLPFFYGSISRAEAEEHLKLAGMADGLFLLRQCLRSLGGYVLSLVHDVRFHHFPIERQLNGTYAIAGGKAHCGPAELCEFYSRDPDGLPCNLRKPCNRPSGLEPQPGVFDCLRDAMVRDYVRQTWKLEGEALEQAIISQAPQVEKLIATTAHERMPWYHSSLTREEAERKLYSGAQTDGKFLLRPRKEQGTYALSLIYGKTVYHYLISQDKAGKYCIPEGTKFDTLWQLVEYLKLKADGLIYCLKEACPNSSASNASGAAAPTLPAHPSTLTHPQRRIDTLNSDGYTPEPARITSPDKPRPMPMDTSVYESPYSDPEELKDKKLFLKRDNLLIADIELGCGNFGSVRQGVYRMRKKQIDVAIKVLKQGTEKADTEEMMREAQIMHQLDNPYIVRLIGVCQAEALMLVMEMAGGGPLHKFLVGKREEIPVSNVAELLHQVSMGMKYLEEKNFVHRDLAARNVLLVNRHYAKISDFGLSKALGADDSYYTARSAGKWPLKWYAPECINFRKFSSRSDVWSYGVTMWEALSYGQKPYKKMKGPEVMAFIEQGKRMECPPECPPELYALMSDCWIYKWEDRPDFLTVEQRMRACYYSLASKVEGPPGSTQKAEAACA
# experiment.description: Inhibition of enzymatic kinase activity (LANCE Ulight)
# Type: biochemical
# experimental.conditions: at 1 μM concentration; read-out: ZAP70 percentage inhibition
Counter-ions that a name gives are not always drawn.

- molecule: "Cn1ccc2nc(N3CCC(O)CC3)nc(Nc3cccc(C(F)(F)F)c3)c2c1=O [Compound 168]"
  target.or.test.system: "human ZAP70 (Homo sapiens)"
  inhibition at 1 µM / %: 6.2
- molecule: "O=c1[nH]ccc2nc(N3CCC(O)CC3)nc(Nc3cccc(C(F)(F)F)c3)c12 [Compound 6]"
  target.or.test.system: "human ZAP70 (Homo sapiens)"
  inhibition at 1 µM / %: 49
- molecule: "NC1CCN(c2nc(Nc3cccc(Br)c3)c3c(=O)[nH]ccc3n2)CC1 [Compound 84, hydrochloride]"
  target.or.test.system: "human ZAP70 (Homo sapiens)"
  inhibition at 1 µM / %: 54.6
- molecule: "N[C@@H]1CCCC[C@H]1Nc1nc(Nc2cc(C(F)(F)F)cc(C(F)(F)F)c2)c2c(=O)[nH]ccc2n1 [Compound 100]"
  target.or.test.system: "human ZAP70 (Homo sapiens)"
  inhibition at 1 µM / %: 9
- molecule: "CS(=O)(=O)c1ccc(Nc2nc(N3CCC(O)CC3)nc3cc[nH]c(=O)c23)cc1 [Compound 126]"
  target.or.test.system: "human ZAP70 (Homo sapiens)"
  inhibition at 1 µM / %: 49.3
- molecule: "NC1CCC(Nc2nc(Nc3cccc(C(F)(F)F)c3)c3c(=O)[nH]ccc3n2)CC1 (stereo not shown) [Compound 9]"
  target.or.test.system: "human ZAP70 (Homo sapiens)"
  inhibition at 1 µM / %: 32
- molecule: "N[C@@H]1CCN(c2nc(Nc3cccc(C(F)(F)F)c3)c3c(=O)[nH]ccc3n2)C1 [Compound 7, hydrochloride]"
  target.or.test.system: "human ZAP70 (Homo sapiens)"
  inhibition at 1 µM / %: 42

====

# Test system: UACC-257
# experiment.description: cells
# Format: cell-based
# experimental.conditions: Homo sapiens; UACC-257 (Melanoma)

- structure.smiles: "O=c1[nH]ccc2nc(N3CCC(O)CC3)nc(Nc3cccc(C(F)(F)F)c3)c12"
  measurement.units: "µM"
  IC50: 8.71

====

# Tested on: UO-31
# experiment.description: cells
# Type: cell-based
# experimental.conditions: Homo sapiens; UO-31 (Renal Cancer)

- structure.smiles: "O=c1[nH]ccc2nc(N3CCC(O)CC3)nc(Nc3cccc(C(F)(F)F)c3)c12"
  IC50, µM: 16.2
